Hey, just so you know, these numbers are from ChEMBL document CHEMBL1201862.

- System: TK-10
- procedure.text: NCI tumour cell line growth inhibition, 48 h
Activity calls are given as the source filed them. Cut-off read from the data, not from the text of the source: active = GI50 up to about 1.1 µM and inactive = higher.
Recorded GI50 values for a group of compounds are listed next.

Sample records with GI50:
Query :: Name the recorded GI50 of the compound listed here: CCOC(=O)C1(Cc2ccccc2)CCN(C(=O)c2ccccc2)C2C1C2(Cl)Cl (centres undefined)
Result :: 24.4 µM (inactive)

Query :: Write down GI50 measured for item CC1CC(=O)Nc2ccc(Cl)cc2N1C(=O)CN1CCC(CCCCN(C)C)CC1 (centres undefined)
Result :: > 100 µM (inactive)

Query :: Please indicate GI50 recorded for C(=C/c1nnnn1-c1ccccc1)/Nc1ccccc1
Result :: 34.4 µM (inactive)

Query :: Output measured GI50 for this item: COc1cccc2c(Nc3ccc(S(=O)(=O)N=C(N)N)cc3)c3ccc([N+](=O)[O-])cc3nc12
Result :: 25.6 µM (inactive)

Query :: Report measured GI50; entry is COc1ccc(C=O)cc1Oc1ccc(C[C@H]2c3c(cc(OC)c4c3Oc3cc5c(cc3O4)CCN(C)C5=O)CCN2C)cc1
Result :: 11.2 µM (inactive)

New cases:
Query :: Consider the compound O=C(Nc1ccccc1)OCCN=C1c2ccccc2CCc2ccccc21 . State its measured GI50.
Result :: 31.8 µM (inactive)

Query :: Please give measured GI50 of the following entry: Cc1ccc(N2C(=O)CC(=O)N(NC(=O)C(C)Oc3ccccc3C)C2=S)cc1 (centres undefined)
Result :: > 100 µM (inactive)

Query :: Give me measured GI50, please, for this compound: NCCNc1nc(N2CCCC2)c2nc(Cl)c(NCc3ccccc3)nc2n1
Result :: 1.67 µM (inactive)

Query :: Fill in GI50 for record N#C/C(=C\c1ccc(Br)cc1)c1nc(-c2cc3ccccc3oc2=O)cs1
Result :: 10.2 µM (inactive)

Query :: Entry O=C(/N=C1/NCC(CN2CCN(c3ccccc3)CC2)O1)Nc1ccccc1 (centres undefined) needs its GI50 filled in; supply it.
Result :: > 100 µM (inactive)

Query :: Supply measured GI50 of Cc1cc(C(=O)N2CCN(Cc3ccccc3)CC2)c(C)o1 in your reply.
Result :: > 100 µM (inactive)

Query :: Output GI50 of COC(=O)C(=O)C(C(=O)C(=O)Nc1ccc(C)cc1C)c1nc2ccc(Cl)cc2nc1O (centres undefined)
Result :: > 100 µM (inactive)

---

- Tested on: SF-539
- procedure.text: NCI tumour cell line growth inhibition, 48 h
The source made the active and inactive calls. Cut-off read from the data, not from the text of the source: active = GI50 up to about 1.1 µM and inactive = higher.
Answer with one of the outcomes true for active, false for inactive

Please review the entries below; each comes with its answer.
Query :: Returns: the outcome recorded for C[C@H]1NC(=O)C2CCCCN2C(=O)CN(C)C(=O)CNC(=O)C2CCCCN2C(=O)[C@@H](NC(=O)c2nc3ccccc3cc2O)[C@@H](C)NC(=O)C2CCCCN2C(=O)CN(C)C(=O)CNC(=O)[C@@H]2CCCCN2C(=O)C1NC(=O)c1nc2ccccc2cc1O (some centres not stated) in this assay.
Result :: true

Query :: Fill in: this test's call for CCOc1cc(C2CC(c3ccc(NS(=O)(=O)c4cc([N+](=O)[O-])ccc4C)cc3)=NN2S(=O)(=O)c2cc([N+](=O)[O-])ccc2C)ccc1O (configuration not stated) is ___
Result :: false

Query :: Look up the recorded call for COc1cc([C@@H]2c3cc4c(cc3[C@@H](NC(=O)c3cccc(F)c3)C3COC(=O)[C@@H]32)OCO4)cc(OC)c1O (some centres not stated) in this test.
Result :: true

Query :: Record lookup: outcome of this test for COC(=O)CN(CC(O)C(NC(C)=O)C(O)C=O)C(=O)OCc1ccccc1 (configuration not stated) ?
Result :: false

Query :: Kindly provide the recorded test outcome for the following compound: CNc1ncnc2c1cnn2Cc1cn(CCCCO)nn1
Result :: false

Others:
Query :: Could you check what this test reported for COc1cc(/C=C2/CCS(=O)(=O)c3ccc(C)cc3C2=O)cc(OC)c1OC ?
Result :: false

Query :: // param item: COC(=O)C(CC=O)C(=O)C(=O)Nc1cccc(C(F)(F)F)c1 (configuration not stated) ; yields the recorded call
Result :: false

Query :: Test call, this compound: Clc1ncc(C(Cl)(Cl)Cl)nc1-c1ccccc1
Result :: false
